- target.of.assay: Vascular endothelial growth factor receptor 2 (Homo sapiens)
- assay.protocol: Selectivity interaction (TR-FRET binding assay) EUB0000644a KDR
measured.parameter: IC50 (nM)
All answers are understood in nM, so give the number only.

Input: Query: IC50; subject: CC[C@@H]1CN(C(=O)NCC(F)(F)F)C[C@@H]1c1cnc2cnc3[nH]ccc3n12 [UPADACITINIB]
Output: 1500

* * *

- target.of.assay: CDK9/cyclin T1 (Homo sapiens, UniProt P50750)
- Sequence (O60563 whole entry): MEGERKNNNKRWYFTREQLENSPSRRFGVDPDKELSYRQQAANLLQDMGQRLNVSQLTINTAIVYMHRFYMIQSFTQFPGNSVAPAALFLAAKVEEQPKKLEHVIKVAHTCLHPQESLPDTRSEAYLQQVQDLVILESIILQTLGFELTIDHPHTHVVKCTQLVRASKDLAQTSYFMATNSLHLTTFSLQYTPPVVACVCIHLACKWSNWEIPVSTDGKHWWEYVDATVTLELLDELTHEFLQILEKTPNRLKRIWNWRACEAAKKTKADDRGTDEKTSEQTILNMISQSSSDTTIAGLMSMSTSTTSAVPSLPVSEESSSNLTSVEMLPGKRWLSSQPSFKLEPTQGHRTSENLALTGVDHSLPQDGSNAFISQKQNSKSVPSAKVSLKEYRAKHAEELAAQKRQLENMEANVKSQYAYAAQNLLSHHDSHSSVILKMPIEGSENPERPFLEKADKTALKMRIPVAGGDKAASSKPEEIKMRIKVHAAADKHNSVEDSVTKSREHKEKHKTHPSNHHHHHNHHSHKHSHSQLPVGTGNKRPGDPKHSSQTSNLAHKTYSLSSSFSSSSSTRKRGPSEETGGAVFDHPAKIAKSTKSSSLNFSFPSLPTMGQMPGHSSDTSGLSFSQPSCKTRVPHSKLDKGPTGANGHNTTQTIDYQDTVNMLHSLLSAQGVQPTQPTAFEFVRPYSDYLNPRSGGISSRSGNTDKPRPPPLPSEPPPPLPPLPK
- Sequence (P50750 whole entry): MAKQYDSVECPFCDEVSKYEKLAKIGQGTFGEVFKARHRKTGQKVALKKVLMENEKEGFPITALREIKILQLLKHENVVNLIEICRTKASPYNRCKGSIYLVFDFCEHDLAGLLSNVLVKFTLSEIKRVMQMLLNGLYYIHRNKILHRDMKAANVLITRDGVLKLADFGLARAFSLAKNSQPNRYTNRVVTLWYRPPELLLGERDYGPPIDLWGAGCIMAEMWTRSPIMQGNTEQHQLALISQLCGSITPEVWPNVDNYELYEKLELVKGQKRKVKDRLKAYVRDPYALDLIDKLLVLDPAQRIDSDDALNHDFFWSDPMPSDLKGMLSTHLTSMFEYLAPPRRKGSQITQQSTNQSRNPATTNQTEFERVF
- assay.protocol: Selectivity interaction (Radiometric kinase assay ) EUB0000090b CDK9
measured.parameter: IC50 (µM)
All answers are understood in µM, so give the number only.

Input: Query: IC50; subject: CN(C)C/C=C/C(=O)Nc1ccc(C(=O)N2CCCC(Nc3ncc(Cl)c(-c4c[nH]c5ccccc45)n3)C2)cc1 (stereo unspecified)
Output: 10.5

* * *

- target.of.assay: Prostaglandin G/H synthase 2 (Homo sapiens, UniProt P35354)
- assay.protocol: Selectivity interaction (COX-2 assay, human recombinant ) EUB0000877a PTGS2
measured.parameter: IC50

Input: Query: IC50; subject: "CCC(=O)N1CC[C@H](Nc2ncnc3c2CN(c2cnc(OC)c(C(F)(F)F)c2)CC3)C1"
Output: > 30 µM

* * *

- target.of.assay: Insulin receptor (Homo sapiens)
- assay.protocol: Selectivity interaction (Kinase panel (enzymatic assay)) EUB0000595a INSR
pIC50: −log10 of the molar value.
measured.parameter: pIC50

Input: Query: pIC50; subject: "COCC(=O)NC/C=C/c1ccc2ncnc(Nc3ccc(Oc4ccc(C)nc4)c(C)c3)c2c1"
Output: < 5.00

* * *

- target.of.assay: Melanocortin receptor 3 (Homo sapiens)
- assay.protocol: Selectivity interaction (Melanocortin MC3 receptor binding assay, human recombinant ) EUB0000877a MC3R
measured.parameter: IC50

Input: Item CCC(=O)N1CC[C@H](Nc2ncnc3c2CN(c2cnc(OC)c(C(F)(F)F)c2)CC3)C1 [LENIOLISIB] with Melanocortin receptor 3 (Homo sapiens) - IC50?
Output: > 30 µM

* * *

- target.of.assay: Cyclin-G-associated kinase (Homo sapiens, UniProt O14976)
- Sequence (O14976 whole entry): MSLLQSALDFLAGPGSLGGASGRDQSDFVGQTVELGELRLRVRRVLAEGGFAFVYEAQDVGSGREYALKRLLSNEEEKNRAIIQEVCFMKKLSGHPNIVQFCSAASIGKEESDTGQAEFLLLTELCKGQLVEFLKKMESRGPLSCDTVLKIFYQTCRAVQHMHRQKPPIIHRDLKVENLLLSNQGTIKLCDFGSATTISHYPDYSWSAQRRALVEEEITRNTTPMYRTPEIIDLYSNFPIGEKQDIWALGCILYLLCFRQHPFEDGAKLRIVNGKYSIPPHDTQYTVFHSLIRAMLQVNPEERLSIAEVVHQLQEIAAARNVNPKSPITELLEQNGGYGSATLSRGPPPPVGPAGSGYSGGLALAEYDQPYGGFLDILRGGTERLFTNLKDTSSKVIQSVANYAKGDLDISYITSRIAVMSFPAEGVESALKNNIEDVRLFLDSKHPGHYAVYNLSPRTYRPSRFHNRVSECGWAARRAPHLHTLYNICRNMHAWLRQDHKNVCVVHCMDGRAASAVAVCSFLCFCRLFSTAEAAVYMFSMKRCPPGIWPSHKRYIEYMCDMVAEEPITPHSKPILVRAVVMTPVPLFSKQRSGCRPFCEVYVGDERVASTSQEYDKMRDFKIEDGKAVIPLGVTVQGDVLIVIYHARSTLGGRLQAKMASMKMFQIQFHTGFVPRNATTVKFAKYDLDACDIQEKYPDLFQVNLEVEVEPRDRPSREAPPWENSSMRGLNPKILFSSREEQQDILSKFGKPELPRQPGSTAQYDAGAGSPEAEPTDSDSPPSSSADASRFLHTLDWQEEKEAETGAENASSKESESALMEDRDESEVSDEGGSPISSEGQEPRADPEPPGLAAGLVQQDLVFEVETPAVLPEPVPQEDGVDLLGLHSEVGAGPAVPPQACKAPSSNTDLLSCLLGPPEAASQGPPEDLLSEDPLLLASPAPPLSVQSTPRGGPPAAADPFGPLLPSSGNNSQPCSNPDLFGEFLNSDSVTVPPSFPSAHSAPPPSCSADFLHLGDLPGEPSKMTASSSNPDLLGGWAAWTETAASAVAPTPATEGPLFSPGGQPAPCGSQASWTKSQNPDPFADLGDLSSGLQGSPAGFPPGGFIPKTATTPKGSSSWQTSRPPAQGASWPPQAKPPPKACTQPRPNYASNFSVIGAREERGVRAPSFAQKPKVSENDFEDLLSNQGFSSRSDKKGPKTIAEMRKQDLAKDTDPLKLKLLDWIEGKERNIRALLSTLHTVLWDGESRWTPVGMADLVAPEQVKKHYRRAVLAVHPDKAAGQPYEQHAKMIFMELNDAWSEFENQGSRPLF
- assay.protocol: Selectivity interaction (Kinase panel (enzymatic assay, literature)) EUB0001492b GAK
measured.parameter: pIC50
Hey, just a heads up that pIC50 is the negative log base 10 of the concentration in molar.

Input: Query: pIC50; subject: CCC(F)(F)c1cc(N2CCC(S(C)(=O)=O)CC2)nc2sc(C(N)=O)c(N)c12 [BI-605906]
Output: 6.57

* * *

- target.of.assay: Rho-associated protein kinase 2 (Homo sapiens)
- Sequence (O75116 whole entry): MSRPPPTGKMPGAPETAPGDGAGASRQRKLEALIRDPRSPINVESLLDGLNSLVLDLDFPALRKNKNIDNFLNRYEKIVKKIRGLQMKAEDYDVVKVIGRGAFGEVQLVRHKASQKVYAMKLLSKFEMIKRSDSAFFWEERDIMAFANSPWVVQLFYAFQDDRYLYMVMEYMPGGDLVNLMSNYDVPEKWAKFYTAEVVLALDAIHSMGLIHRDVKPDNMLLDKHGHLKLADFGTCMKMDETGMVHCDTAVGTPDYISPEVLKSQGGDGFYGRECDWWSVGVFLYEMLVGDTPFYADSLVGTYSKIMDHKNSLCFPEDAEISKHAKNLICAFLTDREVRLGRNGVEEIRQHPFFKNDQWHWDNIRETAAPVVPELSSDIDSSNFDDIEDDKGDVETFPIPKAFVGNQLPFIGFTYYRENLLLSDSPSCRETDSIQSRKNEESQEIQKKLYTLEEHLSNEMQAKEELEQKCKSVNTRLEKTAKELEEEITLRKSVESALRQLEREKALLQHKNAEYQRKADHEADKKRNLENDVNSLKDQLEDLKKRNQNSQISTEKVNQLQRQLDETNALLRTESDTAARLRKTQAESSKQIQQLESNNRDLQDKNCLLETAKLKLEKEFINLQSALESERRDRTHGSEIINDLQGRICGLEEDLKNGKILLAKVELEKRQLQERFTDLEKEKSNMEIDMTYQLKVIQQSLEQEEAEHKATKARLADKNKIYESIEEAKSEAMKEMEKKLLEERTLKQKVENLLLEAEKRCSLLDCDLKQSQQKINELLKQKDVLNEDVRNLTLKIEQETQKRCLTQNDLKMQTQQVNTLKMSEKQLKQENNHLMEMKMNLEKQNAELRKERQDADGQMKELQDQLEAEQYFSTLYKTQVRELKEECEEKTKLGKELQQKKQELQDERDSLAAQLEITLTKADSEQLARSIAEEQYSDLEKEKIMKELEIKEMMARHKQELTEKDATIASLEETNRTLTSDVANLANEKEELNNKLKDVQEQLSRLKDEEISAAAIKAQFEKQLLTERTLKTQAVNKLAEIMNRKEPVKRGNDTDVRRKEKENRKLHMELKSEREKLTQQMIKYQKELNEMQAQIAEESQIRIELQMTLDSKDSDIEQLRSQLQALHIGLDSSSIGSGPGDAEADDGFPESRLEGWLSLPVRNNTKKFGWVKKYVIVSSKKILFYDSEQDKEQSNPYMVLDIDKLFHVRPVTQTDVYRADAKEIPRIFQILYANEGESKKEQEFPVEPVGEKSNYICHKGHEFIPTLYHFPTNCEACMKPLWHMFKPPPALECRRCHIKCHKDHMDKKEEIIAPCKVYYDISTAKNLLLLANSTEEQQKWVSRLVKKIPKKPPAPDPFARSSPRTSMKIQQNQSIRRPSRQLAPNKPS
- assay.protocol: Selectivity interaction (Kinase panel (33PanQinase(R) Activity Assay)) EUB0000877a ROCK2
measured.parameter: IC50

Input: Query: IC50; subject: "CCC(=O)N1CC[C@H](Nc2ncnc3c2CN(c2cnc(OC)c(C(F)(F)F)c2)CC3)C1"
Output: > 10 µM

* * *

- target.of.assay: CDK7/Cyclin H/MNAT1 (Homo sapiens)
- assay.protocol: Selectivity interaction (LanthaScreen Eu Kinase Binding Assay (Invitrogen)) EUB0000121b CDK7
- Format: protein-complex assay
measured.parameter: IC50 (µM)
All answers are understood in µM, so give the number only.

Input: Query: IC50; subject: "COc1ccccc1-c1cc(Nc2cccc(CS(N)(=O)=O)c2)ncn1"
Output: 16

* * *

- assay.protocol: Selectivity interaction (Androgen receptor agonist/antagonist FRET assay, rat recombinant ) EUB0000877a AR
pIC50: −log10 of the molar value.
measured.parameter: pIC50

Input: Query: pIC50; subject: "CCC(=O)N1CC[C@H](Nc2ncnc3c2CN(c2cnc(OC)c(C(F)(F)F)c2)CC3)C1"
Output: < 4.52

* * *

- assay.protocol: Selectivity interaction (Kinase panel (cellular selectivity, Bright-Glo proliferation assay in BaF3 Cell line, Promega)) EUB0000678a INSR
measured.parameter: pIC50
Hey, just a heads up that pIC50 is the negative log base 10 of the concentration in molar.

Input: Query: pIC50; subject: CCN1CCN(c2ccc(Nc3cc(N(C)C(=O)Nc4c(Cl)c(OC)cc(OC)c4Cl)ncn3)cc2)CC1 [INFIGRATINIB]
Output: 5.47

* * *

- target.of.assay: UniProtKB P00519
- Sequence (P00519 whole entry): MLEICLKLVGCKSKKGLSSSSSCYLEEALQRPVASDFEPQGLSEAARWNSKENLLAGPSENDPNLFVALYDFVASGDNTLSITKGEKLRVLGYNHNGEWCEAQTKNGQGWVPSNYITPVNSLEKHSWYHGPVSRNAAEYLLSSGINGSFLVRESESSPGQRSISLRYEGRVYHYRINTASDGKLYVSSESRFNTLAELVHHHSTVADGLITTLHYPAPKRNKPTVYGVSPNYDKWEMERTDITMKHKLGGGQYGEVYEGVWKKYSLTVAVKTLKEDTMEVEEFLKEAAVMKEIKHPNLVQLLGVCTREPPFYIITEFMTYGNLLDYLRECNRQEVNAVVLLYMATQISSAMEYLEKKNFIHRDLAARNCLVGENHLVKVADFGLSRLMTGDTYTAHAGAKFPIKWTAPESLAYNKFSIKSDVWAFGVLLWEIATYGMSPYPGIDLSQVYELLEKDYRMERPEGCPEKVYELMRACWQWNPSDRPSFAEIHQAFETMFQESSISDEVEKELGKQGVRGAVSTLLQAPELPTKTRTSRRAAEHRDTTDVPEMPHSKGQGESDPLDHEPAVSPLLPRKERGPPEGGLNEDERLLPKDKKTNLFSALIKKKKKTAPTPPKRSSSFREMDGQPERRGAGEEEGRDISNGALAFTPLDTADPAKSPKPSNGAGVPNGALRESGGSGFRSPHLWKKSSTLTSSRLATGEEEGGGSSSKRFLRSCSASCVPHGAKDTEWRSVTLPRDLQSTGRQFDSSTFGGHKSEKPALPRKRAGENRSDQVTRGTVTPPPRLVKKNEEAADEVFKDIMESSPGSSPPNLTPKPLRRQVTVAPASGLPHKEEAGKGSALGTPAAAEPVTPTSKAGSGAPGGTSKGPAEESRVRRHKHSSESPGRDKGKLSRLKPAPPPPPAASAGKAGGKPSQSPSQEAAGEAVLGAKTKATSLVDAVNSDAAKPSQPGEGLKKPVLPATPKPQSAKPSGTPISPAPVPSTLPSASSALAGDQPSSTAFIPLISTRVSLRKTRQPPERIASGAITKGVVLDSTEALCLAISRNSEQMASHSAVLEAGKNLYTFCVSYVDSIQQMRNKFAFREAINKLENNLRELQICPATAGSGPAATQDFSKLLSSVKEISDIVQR
- assay.protocol: Selectivity interaction (Kinase panel (Enzyme activity assay)) EUB0000612a ABL1
measured.parameter: IC50

Input: Query: IC50; subject: "CCc1cccc(CC)c1NC(=O)c1nn(C)c2c1CCc1cnc(Nc3ccc(C(=O)NC4CCN(C)CC4)cc3OC(F)(F)F)nc1-2"
Output: > 10 µM

* * *

- target.of.assay: Glycogen synthase kinase-3 alpha (Homo sapiens, UniProt P49840)
- Sequence (P49840 whole entry): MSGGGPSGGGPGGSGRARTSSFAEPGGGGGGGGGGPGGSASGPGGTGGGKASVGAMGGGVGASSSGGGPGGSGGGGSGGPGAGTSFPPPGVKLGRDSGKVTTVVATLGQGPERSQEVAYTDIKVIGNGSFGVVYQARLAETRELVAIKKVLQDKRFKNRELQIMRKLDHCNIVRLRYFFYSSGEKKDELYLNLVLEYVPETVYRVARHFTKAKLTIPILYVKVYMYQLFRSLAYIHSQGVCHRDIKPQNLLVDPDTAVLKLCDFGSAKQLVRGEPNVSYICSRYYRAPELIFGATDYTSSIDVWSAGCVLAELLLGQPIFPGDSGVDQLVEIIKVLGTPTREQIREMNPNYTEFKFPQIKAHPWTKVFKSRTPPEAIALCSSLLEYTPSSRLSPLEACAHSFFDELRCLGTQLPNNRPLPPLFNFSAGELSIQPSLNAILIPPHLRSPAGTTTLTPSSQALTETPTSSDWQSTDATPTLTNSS
- assay.protocol: Selectivity interaction (Kinase counterscreening (biochemical assay)) EUB0000604a GSK3A
measured.parameter: Ki
Kindly write the number and append the unit.

Input: Item "Cc1cnc(Nc2ccc(F)cc2Cl)nc1-c1c[nH]c(C(=O)N[C@H](CO)c2cccc(Cl)c2)c1" with Glycogen synthase kinase-3 alpha (Homo sapiens, UniProt P49840) - Ki?
Output: 400 nM

* * *

- target.of.assay: Dual specificity tyrosine-phosphorylation-regulated kinase 1B (Homo sapiens, UniProt Q9Y463)
- Sequence (Q9Y463 whole entry): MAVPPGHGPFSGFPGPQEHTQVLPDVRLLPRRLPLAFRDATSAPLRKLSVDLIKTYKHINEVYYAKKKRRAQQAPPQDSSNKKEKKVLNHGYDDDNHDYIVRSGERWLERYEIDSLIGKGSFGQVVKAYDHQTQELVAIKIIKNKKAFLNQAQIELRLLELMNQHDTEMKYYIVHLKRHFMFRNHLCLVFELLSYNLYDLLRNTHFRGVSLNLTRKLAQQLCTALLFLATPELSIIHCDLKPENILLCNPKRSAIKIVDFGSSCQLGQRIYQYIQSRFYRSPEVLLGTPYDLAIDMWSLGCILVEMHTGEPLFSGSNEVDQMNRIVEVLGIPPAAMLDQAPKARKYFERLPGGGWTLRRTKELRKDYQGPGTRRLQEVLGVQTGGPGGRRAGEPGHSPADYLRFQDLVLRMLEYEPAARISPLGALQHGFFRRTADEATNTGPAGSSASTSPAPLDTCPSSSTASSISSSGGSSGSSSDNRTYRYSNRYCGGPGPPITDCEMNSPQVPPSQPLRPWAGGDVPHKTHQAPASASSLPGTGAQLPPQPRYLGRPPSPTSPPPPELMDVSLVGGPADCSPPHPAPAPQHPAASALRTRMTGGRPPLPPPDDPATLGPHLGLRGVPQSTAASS
- assay.protocol: Selectivity interaction (Kinome Scan (DiscoverX, competition binding assay)) EUB0001548a DYRK1B
measured.parameter: Kd

Input: Query: Kd; subject: "COc1cnccc1Nc1nc(-c2nn(Cc3c(F)cc(OCCO)cc3F)c3ccccc23)ncc1OC"
Output: > 30 µM

* * *

- target.of.assay: Casein kinase I isoform epsilon (Homo sapiens, UniProt P49674)
- assay.protocol: Selectivity interaction (Western Blot assay (autophosphorylation of CSNK1E in HEK293T-REx cells)) EUB0001205a CSNK1E
measured.parameter: pIC50
Hey, just a heads up that pIC50 is the negative log base 10 of the concentration in molar.

Input: Query: pIC50; subject: "CN1CCC(F)(Cn2cnc(-c3ccc(F)cn3)c2-c2ccnc3[nH]ccc23)CC1"
Output: 4.91

* * *

- target.of.assay: CDK2/Cyclin A2 (Homo sapiens)
- assay.protocol: Selectivity interaction (Enzymatic assay (Reaction Biology)) EUB0001632a CDK2
measured.parameter: IC50

Input: Item "Cn1cc(-n2cnc3c(NCc4nc5cc(Cl)c(Cl)cc5[nH]4)nc(N4CCOCC4)nc32)cn1" with CDK2/Cyclin A2 (Homo sapiens) - IC50?
Output: > 10 µM
